The reported measurements were obtained from patent US20190177417A1.

Biological target: T1, Axl protein (human, UniProt P30530 26-451)
T1 construct: extracellular domain; also called human Axl; hAxl
T1 sequence (looked up): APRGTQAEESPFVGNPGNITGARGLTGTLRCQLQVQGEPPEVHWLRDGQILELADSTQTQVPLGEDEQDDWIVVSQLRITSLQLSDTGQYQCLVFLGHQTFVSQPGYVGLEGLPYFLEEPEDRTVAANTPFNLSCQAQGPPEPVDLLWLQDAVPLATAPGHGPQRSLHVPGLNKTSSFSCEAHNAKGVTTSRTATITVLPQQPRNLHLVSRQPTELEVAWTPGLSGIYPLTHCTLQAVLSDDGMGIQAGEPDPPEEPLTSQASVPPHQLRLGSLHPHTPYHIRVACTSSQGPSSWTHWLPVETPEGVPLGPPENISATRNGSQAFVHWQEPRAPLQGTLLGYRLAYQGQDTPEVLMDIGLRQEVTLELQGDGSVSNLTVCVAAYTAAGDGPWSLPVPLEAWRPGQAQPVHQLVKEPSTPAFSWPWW
Test: ELISA, 1:9 dilution, pH 6.0 over pH 7.4
Property measured: Affinity ELISA CPE mutant ratio (1:9, pH 6.0/7.4) (ratio)
Kindly answer with a numeric value in ratio, unit omitted.

QUERY: Which Affinity ELISA CPE mutant ratio (1:9, pH 6.0/7.4) reading was recorded for the binder LC-T094C (antibody, V domains shown) VH: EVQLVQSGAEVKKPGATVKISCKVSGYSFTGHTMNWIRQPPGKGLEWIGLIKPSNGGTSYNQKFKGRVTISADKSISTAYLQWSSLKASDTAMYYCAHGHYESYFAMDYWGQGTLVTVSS VL: DIQMTQSPSSLSASVGDRVTITCKASQDVSSAVAWYQQKPGQAPRLLIYWASTRHTGVPSRFSGSGSGTEFTLTISSLQPDDFATYYCQEHFSCPLTFGQGTKVEIK ?
RESULT: 1.77

QUERY: Consider next the binder LC-A051P (antibody, V domains shown) VH: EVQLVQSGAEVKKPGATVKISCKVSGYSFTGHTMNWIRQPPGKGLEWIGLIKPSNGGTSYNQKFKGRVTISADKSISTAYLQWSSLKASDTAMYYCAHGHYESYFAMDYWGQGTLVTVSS VL: DIQMTQSPSSLSASVGDRVTITCKASQDVSSAVAWYQQKPGQAPRLLIYWPSTRHTGVPSRFSGSGSGTEFTLTISSLQPDDFATYYCQEHFSTPLTFGQGTKVEIK in the same way.
RESULT: 1.57

QUERY: Same read-out for LC-H091L (antibody, V domains shown) VH: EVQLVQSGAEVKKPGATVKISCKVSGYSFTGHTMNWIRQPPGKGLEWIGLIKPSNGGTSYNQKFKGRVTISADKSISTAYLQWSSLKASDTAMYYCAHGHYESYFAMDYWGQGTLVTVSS VL: DIQMTQSPSSLSASVGDRVTITCKASQDVSSAVAWYQQKPGQAPRLLIYWASTRHTGVPSRFSGSGSGTEFTLTISSLQPDDFATYYCQELFSTPLTFGQGTKVEIK ?
RESULT: 2.08

QUERY: Please answer likewise for LC-P095W (antibody, V domains shown) VH: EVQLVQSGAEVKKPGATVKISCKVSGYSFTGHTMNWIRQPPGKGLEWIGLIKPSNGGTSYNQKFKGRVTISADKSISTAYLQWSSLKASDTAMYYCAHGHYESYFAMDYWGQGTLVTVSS VL: DIQMTQSPSSLSASVGDRVTITCKASQDVSSAVAWYQQKPGQAPRLLIYWASTRHTGVPSRFSGSGSGTEFTLTISSLQPDDFATYYCQEHFSTWLTFGQGTKVEIK
RESULT: 2.26

QUERY: How about LC-A034Q (antibody, V domains shown) VH: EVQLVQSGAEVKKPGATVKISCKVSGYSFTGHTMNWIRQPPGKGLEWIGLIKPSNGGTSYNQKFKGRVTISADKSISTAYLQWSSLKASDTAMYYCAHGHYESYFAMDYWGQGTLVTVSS VL: DIQMTQSPSSLSASVGDRVTITCKASQDVSSAVQWYQQKPGQAPRLLIYWASTRHTGVPSRFSGSGSGTEFTLTISSLQPDDFATYYCQEHFSTPLTFGQGTKVEIK ?
RESULT: 1.41
